Reference source for all entries: PubChem BioAssay AID1963840

- Test system: 695427-040-R-J1-PDC complex spheroid viability
- assay-notes: Anticancer human tumor 695427-040-R-J1-PDC patient-derived colon adenocarcinoma cell line growth inhibition [POLQ]
- measurement-conditions: second compound 10 µM; first compound 0.0316 µM; stronger effect = lower value
Below is a list of entries, each paired with its recorded viability, T/C value.
Please give a number only; it is taken to be in %.

viability, T/C reported for this molecule C#Cc1c(F)ccc2cc(O)cc(-c3ncc4c(N5CC6CCC(C5)N6)nc(OCC56CCCN5CC(F)C6)nc4c3F)c12 (stereo unspecified) + Nc1ccc(C#CCN(C(=O)Cc2ncc(C(F)(F)F)cc2C(F)(F)F)c2ccc(F)cc2)nn1 : 92

viability, T/C reported for this molecule CC(C)n1c(=O)n(C)c2cnc3cc(F)c(-c4ccc(OCCCN5CCCCC5)nc4)cc3c21 + Nc1ccc(C#CCN(C(=O)Cc2ncc(C(F)(F)F)cc2C(F)(F)F)c2ccc(F)cc2)nn1 : 99.7

viability, T/C reported for this molecule O=C(Nc1ccc(O)c(NS(=O)(=O)c2ccc(F)cc2)c1)c1ccc(-c2ccccc2)cc1 + COC1C(OC(N)=O)C(O)C(Oc2ccc3c(O)c(NC(=O)c4ccc(O)c(CC=C(C)C)c4)c(=O)oc3c2C)OC1(C)C : 104

viability, T/C reported for this molecule CNCc1ccc(-c2[nH]c3cc(F)cc4c3c2CCNC4=O)cc1 + Nc1ccc(C#CCN(C(=O)Cc2ncc(C(F)(F)F)cc2C(F)(F)F)c2ccc(F)cc2)nn1 : 105

viability, T/C reported for this molecule CCc1cc2c(N3CCc4c(cc(Cn5ccnc5)cc4-c4cn(C)nc4C(F)(F)F)C3=O)cc(C)nc2c(OC)n1 + Cc1cccc(N(C)C(=O)C2C(O)CCN2c2nc(C)cc(C(F)(F)F)c2C#N)c1 : 102

viability, T/C reported for this molecule O=C(c1cc(Cc2n[nH]c(=O)c3ccccc23)ccc1F)N1CCN(C(=O)C2CC2)CC1 + Nc1ccc(C#CCN(C(=O)Cc2ncc(C(F)(F)F)cc2C(F)(F)F)c2ccc(F)cc2)nn1 : 95.8

viability, T/C reported for this molecule COc1cc2cc(C(=O)CCC(=O)O)sc2cc1OC + Nc1ccc(C#CCN(C(=O)Cc2ncc(C(F)(F)F)cc2C(F)(F)F)c2ccc(F)cc2)nn1 : 105

viability, T/C reported for this molecule Cn1ncnc1[C@H]1c2n[nH]c(=O)c3cc(F)cc(c23)N[C@@H]1c1ccc(F)cc1 + COC1C(OC(N)=O)C(O)C(Oc2ccc3c(O)c(NC(=O)c4ccc(O)c(CC=C(C)C)c4)c(=O)oc3c2C)OC1(C)C : 113

###

- System: 695427-040-R-J1-PDC complex spheroid viability
- assay-notes: Anticancer human tumor 695427-040-R-J1-PDC cell line growth inhibition [POLQ];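 also: spheroids exposed to compounds for seven days; 100% = DMSO vehicle control viability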
- measurement-conditions: second compound 0.316 µM; first compound 3.16 µM; stronger effect = lower value
- Protocol: Multicellular complex tumor spheroid response to Polymerase (POL) inhibitors (novobiocin, ART-558, RP6685) in combination with a variety of drugs and investigational agents in selected tumor cell lines The POL inhibitors (novobiocin, ART-558, and RP6685) were evaluated both individually and in combination with standard of care and investigational anticancer small molecules within a complex spheroid model of solid tumors. . […]
Below is a list of entries, each paired with its recorded viability, T/C value.
Please give a number only; it is taken to be in %.

Before answering, review these 2 worked examples.
COc1cccc2c1C(=O)c1c(O)c3c(c(O)c1C2=O)CC(O)(C(=O)CO)CC3OC1CC(N)C(O)C(C)O1 (stereo not drawn) + COC1C(OC(N)=O)C(O)C(Oc2ccc3c(O)c(NC(=O)c4ccc(O)c(CC=C(C)C)c4)c(=O)oc3c2C)OC1(C)C: 65.9
CC(C)n1c(=O)n(C)c2cnc3cc(F)c(-c4ccc(OCCCN5CCCCC5)nc4)cc3c21 + COC1C(OC(N)=O)C(O)C(Oc2ccc3c(O)c(NC(=O)c4ccc(O)c(CC=C(C)C)c4)c(=O)oc3c2C)OC1(C)C: 114

From here, focus on the item given below.
viability, T/C reported for this compound CC1COCCN1c1cc(-c2ccnn2C)c2ccnc(-c3ccn[nH]3)c2n1 (stereo not drawn) + COC1C(OC(N)=O)C(O)C(Oc2ccc3c(O)c(NC(=O)c4ccc(O)c(CC=C(C)C)c4)c(=O)oc3c2C)OC1(C)C : 48.5
